test system: MARIMO; experiment: cell viability relative to vehicle control; higher = less cytotoxic; conditions: 10 µM; SRSF2 genotype: SRSF2 wt/wt;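 also: after 48 h exposure read by CellTiter-Glo luminescence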
Measurement label: cell viability
Answer format: number, then unit.

Below, each entry is followed by its recorded cell viability result.
Field cell viability (entry CCC(C(=O)O)c1ccc(N2Cc3ccccc3C2=O)cc1 (stereo not drawn) [Indobufen] ) reads 100%

Field cell viability (entry CCOP(=O)(OCC)C(=Cc1cc(C(C)(C)C)c(O)c(C(C)(C)C)c1)P(=O)(OCC)OCC ) reads 93%

Field cell viability (entry CCc1ccc(OCc2ccccc2C(=O)Nc2ccc3nc(C)cc(N)c3c2)cc1 ) reads 0.59%

Field cell viability (entry C=C[C@@H]1CNC(=S)O1 [Epigoitrin] ) reads 93.1%

Field cell viability (entry COc1cc2c(cc1O)C[C@H]1c3cc(O)c(OC)cc3CC[N@@+]1(C)C2 [Phellodendrine] ) reads 98.7%

Each of the following entries comes with a recorded value; kindly state cell viability for each.
1. NCCc1c[nH]cn1 [Histamine 2HCl]
2. CC(=O)Oc1ccccc1C(=O)O [Aspirin (Acetylsalicylic acid)]
3. CC(C)[N+]1(C)[C@@H]2CC[C@H]1C[C@@H](OC(=O)C(CO)c1ccccc1)C2 (stereo partly drawn) [Ipratropium bromide]

96.1%
95.9%
105%
